# System: Canis familiaris
# procedure_summary: Tested for gastric antisecretory activity in dogs by intrapouch administration
# Type: functional
# conditions: Canis lupus familiaris, Stomach
parameter: ED50 (µg/kg)
Value expressed in µg/kg; do not type the unit.

Fill in: ED50 of COC(=O)CC/C=C\CC[C@H]1C(=O)C[C@@H](O)[C@@H]1/C=C/C[C@@](C)(O)/C=C/C1CC1 is ___ 0.1

Follow-up entry: COC(=O)CC/C=C\CC[C@H]1C(=O)C[C@@H](O)[C@@H]1/C=C/C[C@@](C)(O)/C=C/C1=CCCCC1 0.3

Follow-up entry: COC(=O)CC/C=C\CC[C@H]1C(=O)C[C@@H](O)[C@@H]1/C=C/C[C@@](C)(O)/C=C/C1=CCCC1 0.02

Follow-up entry: COC(=O)CC/C=C\CC[C@H]1C(=O)C[C@@H](O)[C@@H]1/C=C/C[C@@](C)(O)/C=C/C1(C)CC1 0.02

---

# System: Canis familiaris
# procedure_summary: Tested for gastric antisecretory activity in dogs by intrapouch administration
# Format: functional
# conditions: Canis lupus familiaris, Stomach
parameter: ED50 (µg/kg)
Value expressed in µg/kg; do not type the unit.

Fill in: ED50 of COC(=O)CC/C=C\CC[C@H]1C(=O)C[C@@H](O)[C@@H]1/C=C/C[C@@](C)(O)/C=C/C1CCCC1 is ___ 0.3

Follow-up entry: COC(=O)CC/C=C\CC[C@H]1C(=O)C[C@@H](O)[C@@H]1/C=C/CC(C)(O)CCC1=CCCC1 (some centres undefined) 0.1

Follow-up entry: COC(=O)CC/C=C\CC[C@H]1C(=O)C[C@@H](O)[C@@H]1/C=C/C[C@@](C)(O)C#CC1=CCCC1 2.8

Follow-up entry: COC(=O)CC/C=C\CC[C@H]1C(=O)C[C@@H](O)[C@@H]1/C=C/C[C@@](C)(O)/C=C/C1CCC1 0.05
